Values were extracted from ChEMBL document CHEMBL1136542.

Test system 72 kDa type IV collagenase (Homo sapiens, UniProt P08253), pKi listed for each of the compounds.
Formally, pKi is defined as -log10 of the concentration c, with c in mol/L.

Answered examples (3):
| Smiles string | pKi |
| --- | --- |
| Cc1cc(COc2ccc(N3CC[C@H]([C@H](NC(=O)C(C)(C)C)C(=O)NO)C3=O)cc2)c2ccccc2n1 | 5.91 |
| COC(=O)N[C@H](C(=O)NO)[C@H]1CCN(c2ccc(OCc3cc(C)nc4ccccc34)cc2)C1=O | 6.32 |
| Cc1cc(COc2ccc(N3CC[C@H]([C@H](NC(=O)OC(C)(C)C)C(=O)NO)C3=O)cc2)c2ccccc2n1 | 6.49 |

(Q) I'd like to know its pKi. The compound in question is Cc1cc(COc2ccc(N3CC[C@H]([C@H](NC(=O)c4ccccc4)C(=O)NO)C3=O)cc2)c2ccccc2n1
(A) 6.36

(Q) Next compound: CC(=O)N[C@H](C(=O)NO)[C@H]1CCN(c2ccc(OCc3cc(C)nc4ccccc34)cc2)C1=O
(A) 6.71
